The values you see were collected from patent US12227482B2.

Each entry below lists one item and its recorded IC50 value.
# System: A549 cells
# Assay Summary: Cell viability (CellTiter-Glo ATP content) in A549 cells
# Assay type: cell-based
# Condition: Homo sapiens, A549, 72 h, 72 hours treatment, cell survival by CellTiter-Glo, 2% fetal bovine serum

Guide cases for IC50, answers given:
[[record]]
compound = "CCCCC1C(c2ccc(F)cc2)=NN(c2ccccc2)C1(C)C(=O)NCCc1ccc(O)cc1 (stereo not shown)"
observed_measurement = "> 2 µM"

[[record]]
compound = "CCCCC1C(c2ccc(F)cc2)=NN(c2ccccc2)C1(C)C(=O)NCCCN1CCCCC1 (stereo not shown)"
observed_measurement = "> 2 µM"

[[record]]
compound = "CCCCC1C(c2ccc(F)cc2)=NN(c2ccc(Cl)cc2)C1(C)C(=O)NCCCOC (stereo not shown)"
observed_measurement = "> 2 µM"

[[record]]
compound = "CCCCC1C(c2ccc(F)cc2)=NN(c2ccc(F)cc2F)C1(C)C(=O)NCCO (stereo not shown)"
observed_measurement = "1 to 2 µM"


In: Give measured IC50 for CCCCC1C(c2ccc(Cl)cc2F)=NN(c2ccccc2)C1(C)C(=O)NCCOC (stereo not shown) (A549 cells).
Out: > 2 µM

In: // fetch IC50; item: CC1(O)CC(NC(=O)CNC(=O)C2(C)C(c3cccs3)C(c3ccc(F)cc3)=NN2c2ccc(F)cc2F)C1 (stereo not shown) ; system: A549 cells
Out: > 2 µM

In: Look up and report IC50, with A549 cells as system, for CCCCC1C(c2ccc(F)cc2)=NN(c2cccc(Cl)c2)C1(C)C(=O)NCCCC(C)(C)CO (stereo not shown)
Out: 1 to 2 µM

In: Tell me IC50 of CCCCC1C(c2ccc(F)cc2)=NN(c2cccc(F)c2)C1(C)C(=O)NCCCOC (stereo not shown) when tested on A549 cells.
Out: > 2 µM

In: State, for A549 cells, measured IC50 of the compound listed here: COCCNC(=O)C1(C)C(c2ccc(C)s2)C(c2ccc(F)cc2)=NN1c1ccc(F)cc1F (stereo not shown)
Out: > 2 µM

In: Write down the reported IC50 (system: A549 cells) of CCCCC1C(c2ccc(F)cc2)=NN(c2ccccc2)C1(C)C(=O)NCc1ccc(O)cc1 (stereo not shown)
Out: > 2 µM

In: Report IC50 on A549 cells for this entry: CCCCC1C(c2ccc(F)cc2)=NN(c2ccccc2)C1(C)C(=O)NCC1CC1 (stereo not shown)
Out: > 2 µM

In: Report value: IC50, system: A549 cells, compound: CCCCC1C(c2ccc(F)cc2)=NN(c2ccc(F)cc2F)C1(C)C(=O)NCC(=O)OC (stereo not shown)
Out: 0.5 to 1 µM

In: Write down the reported IC50 (system: A549 cells) of CCCCC1C(c2ccc(F)cc2)=NN(c2ccc(Cl)cc2F)C1(C)C(=O)NCCOC (stereo not shown)
Out: 0.25 to 0.5 µM

In: Report IC50 from A549 cells testing of CC(C)(CO)CCCNC(=O)C1(C)C(c2ccc(Cl)s2)C(c2ccc(F)cc2)=NN1c1ccc(F)cc1F (stereo not shown)
Out: > 2 µM

In: For A549 cells, give IC50 of the listed compound: CCCCC1C(c2ccc(F)cc2)=NN(c2ccc(F)cc2)C1(C)C(=O)NCCCOC (stereo not shown)
Out: > 2 µM

In: Enter IC50 (test system A549 cells) for Cn1cc(C2C(c3ccc(F)cc3)=NN(c3ccc(F)cc3F)C2(C)C(=O)NCCCC(C)(C)CO)cn1 (stereo not shown)
Out: > 2 µM
